- system-name: human adenosine A1 receptor (Homo sapiens, UniProt P30542)
- Construct: expressed in transfected cells; host or cells: HEK293 cells infected with BacMam (the same paragraph also labels the preparation CHO-hA1)
- Sequence (P30542 whole entry): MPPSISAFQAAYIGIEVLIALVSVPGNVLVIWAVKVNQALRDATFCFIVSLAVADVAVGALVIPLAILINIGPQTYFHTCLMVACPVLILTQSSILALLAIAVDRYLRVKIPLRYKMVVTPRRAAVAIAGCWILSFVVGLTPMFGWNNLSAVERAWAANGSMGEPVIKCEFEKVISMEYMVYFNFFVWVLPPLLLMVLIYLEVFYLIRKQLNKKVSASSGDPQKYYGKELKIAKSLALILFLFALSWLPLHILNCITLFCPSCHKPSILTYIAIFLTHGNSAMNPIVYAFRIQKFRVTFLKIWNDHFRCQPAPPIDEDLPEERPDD
- measurement-protocol: Inhibition binding assay, human adenosine A1 receptor membranes, [3H]DPCPX
- condition-summary: 1 nM [3H]DPCPX, 25° C., 1 h; IC50 converted to Ki with Cheng-Prusoff; read-out: A1 pKi (converted)
readout-name: Ki (nM)

(a) Cc1cc(-c2c(-c3ccccc3)nc(N)n3c(=O)n(CC4CCCCO4)nc23)cc(CO)n1 (single isomer, unassigned) [Example 2-91-iso-2]
(b) CCOC(=O)N(C)CCn1nc2c(-c3cc(C)nc(C)c3)c(-c3ccccc3)nc(N)n2c1=O
(c) Cc1cc(-c2c(-c3ccccc3)nc(N)n3c(=O)n(Cc4ncc(F)cc4Cl)nc23)cc(C)n1
(d) Cc1cc(-c2c(-c3ccccc3)nc(N)n3c(=O)n(C[C@@H]4CN(C(=O)OC(C)(C)C)CCN4C)nc23)cc(C)n1
Order the records by Ki, with each subsequent value no larger than the one before. Field: ranking. Enter the labels in the order requested.
d, b, a, c
(d: 1000 nM, b: 501 nM, a: 251 nM, c: 63.1 nM)

(1) Cc1cc(-c2c(-c3ccccc3)nc(N)n3c(=O)n(C(CNCC(F)(F)F)c4ccccc4)nc23)cc(C)n1 (stereo not shown)
(2) COc1cc(-c2c(-c3ccccc3)nc(N)n3c(=O)n(Cc4ccc(C)cn4)nc23)cc(CO)n1
Of 1 and 2 , which carries the smaller reported Ki figure? State the label of the item chosen.
1
(1: 316 nM, 2: 501 nM)
